- System: PC3 cells
- experiment_notes: Cell viability (MTT) assay in PC3 cells
- Type: cell-based, human
- run_parameters: 24 h, DIM alone
metric: IC50 (µM)
Kindly provide the numeric value in µM only, without the unit symbol.

Incoming: Tell us which IC50 value is on record for c1ccc2c(Cc3c[nH]c4ccccc34)c[nH]c2c1
Outgoing: 38.9

====

EC50 values, listed per item
- System: cannabinoid CB1 or CB2 receptors (LNCaP cell membranes)
- experiment_notes: [35S]GTPγS binding in LNCaP cell membranes
- Type: biochemical, human
- run_parameters: agonist alone, read-out: EC50, stimulation of [35S]GTPγS binding
Kindly provide the numeric value in nM only, without the unit symbol.

CCCCCCC(C)(C)c1ccc([C@@H]2C[C@H](O)CC[C@H]2CCCO)c(O)c1 :: 2.56

Proceeding to the next compound to report its EC50.
Incoming: State measured EC50 of the compound c1ccc2c(Cc3c[nH]c4ccccc34)c[nH]c2c1 with cannabinoid CB1 or CB2 receptors (LNCaP cell membranes).
Outgoing: 32.1

Source: paper PMC9962283
